# Test system: Ba/F3 ERBB2 V777_G778insGC
# TEST DESCRIPTION: Proliferation inhibition, CellTiter Glo, Ba/F3 ERBB2 V777_G778insGC
# Assay type: cell-based, mouse
# CONDITION DETAILS: Mus musculus, BaF3; Ba/F3 ERBB2 V777_G778insGC stably transfected cells, 72 hours
METRIC: pIC50
Here pIC50 is given on a logarithmic scale as minus log10 of the concentration in mol/L.

COMPOUND: C=CC(=O)Nc1cc(Nc2nccc(-c3cn(C)c4ccccc34)n2)c(OCC(F)(F)F)nc1N(C)CCN(C)C [furmonertinib mesilate]
METRIC: pIC50
NUMBER: 7.60

What pIC50 appears in the records for this compound with Ba/F3 ERBB2 V777_G778insGC? C=CC(=O)Nc1cc(Nc2nccc(-c3cn(C)c4ccccc34)n2)c(OC)cc1N(C)CCN(C)C [AZD9291, reference compound]
7.11

----------
# System: Ba/F3 EGFR G719S/T263P
# TEST DESCRIPTION: Proliferation inhibition, CellTiter Glo, Ba/F3 EGFR G719S/T263P
# Format: cell-based, mouse
# CONDITION DETAILS: Mus musculus; Ba/F3 EGFR G719S/T263P stably transfected cells, 72 hours
# Protocol: […] The data were analyzed using GraphPad Prism 7.0 software, fitted with nonlinear S-curve regression to give a dose-effect curve, and IC50 values were calculated therefrom, as shown in Table 1.
METRIC: IC50 (nM)
All answers are understood in nM, so give the number only.

State its IC50 on Ba/F3 EGFR G719S/T263P: C=CC(=O)Nc1cc(Nc2nccc(-c3cn(C)c4ccccc34)n2)c(OCC(F)(F)F)nc1N(C)CCN(C)C [furmonertinib mesilate]
37

Another compound: C=CC(=O)Nc1cc(Nc2nccc(-c3cn(C)c4ccccc34)n2)c(OC)cc1N(C)CCN(C)C [AZD9291, reference compound]
191

----------
Each item that follows carries a reported IC50.
# Tested on: Ba/F3 EGFR G719S
# TEST DESCRIPTION: Proliferation inhibition, CellTiter Glo, Ba/F3 EGFR G719S
# Type: cell-based, mouse
# CONDITION DETAILS: Mus musculus; Ba/F3 EGFR G719S stably transfected cells, 72 hours
# Procedure: […] The data were analyzed using GraphPad Prism 7.0 software, fitted with nonlinear S-curve regression to give a dose-effect curve, and IC50 values were calculated therefrom, as shown in Table 1.
Record the value in nM, omitting the unit from your answer.

COMPOUND: C=CC(=O)Nc1cc(Nc2nccc(-c3cn(C)c4ccccc34)n2)c(OC)cc1N(C)CCN(C)C [AZD9291, reference compound]
IC50 [nM]: 68

Could you now consider this next compound?
What value of IC50 has been reported for the following compound? C=CC(=O)Nc1cc(Nc2nccc(-c3cn(C)c4ccccc34)n2)c(OCC(F)(F)F)nc1N(C)CCN(C)C [furmonertinib mesilate]
19
